Attribution: PubChem BioAssay AID504775

Assay: enhancers of HDL lipid transfer via mSR-BI – ldlA[mSR-BI] CHO cells, DiI fluorescence, primary screen (AID 504775);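 further: 0% = median plate neutral-control signal and 100% = twice that signal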
Settings: DiI-HDL uptake fluorescence, 3 h, at 12.5 µM, stronger effect = higher value, 100 = double the neutral-control signal
Hit rate of the full screen: of about 320,000 compounds, about 310 (0.097%) were called active. The sample as a whole holds a higher share of actives than the screen did.
property name: activation

q: Given the molecule O=C(NCCc1ccccc1)c1cccc(NC(=O)c2ccccc2)c1 , what is its reported activation?
a: -9.83% (inactive)

q: Given the molecule C(#CCN1CCOCC1)CCCN1CCOCC1 , what is its reported activation?
a: 16.4% (inactive)

q: Given the molecule COc1ccc2sc(-c3ccccc3OC)c(-c3ccc(OCCN4CCCC4)cc3)c2c1 , what is its reported activation?
a: 88% (active)

q: Given the molecule NS(=O)(=O)c1ccc(CCNC(=O)c2ccc(Cl)c(S(=O)(=O)N3CCCCCC3)c2)cc1 , what is its reported activation?
a: -32.8% (inactive)

* * *

Assay: enhancers of HDL lipid transfer via mSR-BI – ldlA[mSR-BI] CHO cells, DiI fluorescence, primary screen (AID 504775);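 further: 0% = median plate neutral-control signal and 100% = twice that signal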
Conditions: DiI-HDL uptake fluorescence, 3 h, at 12.5 µM, stronger effect = higher value, 100 = double the neutral-control signal
The whole screen tested about 320,000 compounds, of which about 310 (0.097%) were called active. The full list was thinned out, with actives kept by preference.
property name: activation (%)
The reply should contain only the number, in %.

q: Given the compound O=C(CC1Sc2ccccc2NC1=O)NNc1ccc(Cl)c(Cl)c1 (stereo not given) , what is its reported activation?
a: -45.6

q: Given the compound COc1ccc(NS(=O)(=O)c2ccc(N3CCOCC3)c(NC(=O)/C=C/C(=O)O)c2)cc1 , what is its reported activation?
a: 22.2

q: Given the compound CCCCN1CC(CO)Oc2cccc(F)c2S1(=O)=O (stereo not given) , what is its reported activation?
a: 10.7

q: Given the compound NC(=O)c1ncn([C@@H]2O[C@H](CNCc3cnc(N4CCOCC4)s3)[C@@H](O)[C@H]2O)n1 , what is its reported activation?
a: -12

q: Given the compound Cc1cc([N+](=O)[O-])ccc1NS(=O)(=O)c1ccccc1 , what is its reported activation?
a: 11.2

q: Given the compound CCCCN1CC(COCc2ccccc2)OCCS1(=O)=O (stereo not given) , what is its reported activation?
a: 17.3

q: Given the compound CC(NC(=O)c1ccccc1)C(=O)Nc1ccccc1 (stereo not given) , what is its reported activation?
a: -16.6

q: Given the compound O=C1OCC2=C1C(c1ccc(Cl)cc1)c1cc3c(cc1O2)OCO3 (stereo not given) , what is its reported activation?
a: -14

q: Given the compound CCCCC(=O)NC(c1ccc(OC)c(OC)c1)c1ccc2cccnc2c1O (stereo not given) , what is its reported activation?
a: -3.38

q: Given the compound CC(C)Cc1nnc(N)s1 , what is its reported activation?
a: 10.1
